- study-target: tuftsin receptor (human)
- assay-notes: binding to human leukocytes
Where no end group is shown, it is not given here. [ ]: non-standard residue; d: D form.
property-label: Kd (µM)

                                     binder  property_label  measurement_unit  reported
0  T[dK]G[dC]R [Thr-D-Lys-Gly-D-Cys-Arg (unlabeled, not complexed to a metal ion)]              Kd                µM       100

Just for reference, patent US20060040324A1 is where these values come from.
